# Test system: Escherichia coli TOP10
# procedureDetails: shrunken log2 fold change of peptide-encoding DNA abundance (4.5 h post-induction vs induction); higher = less antimicrobial activity (less host growth inhibition)
# reportedConditions: time post-induction: 4.5 h; library: site-saturation at positions 5, 18, 19, 20
Definition: the class of an entry is the range in bin 1: < -0.1; bin 2: ≥ -0.1 and < 0.1; bin 3: ≥ 0.1 that contains its shrunken log2 fold change.

>  <entrySequence>
RRIRPRPPRLPRPRPRPWIEPRP

>  <testedTarget>
Escherichia coli TOP10

>  <classLabel>
bin 1

$$$$
>  <entrySequence>
RRIRRRPPRLPRPRPRPPLAPRP

>  <testedTarget>
Escherichia coli TOP10

>  <classLabel>
bin 3

$$$$
>  <entrySequence>
RRIRKRPPRLPRPRPRPRDCPRP

>  <testedTarget>
Escherichia coli TOP10

>  <classLabel>
bin 3

$$$$
>  <entrySequence>
RRIRARPPRLPRPRPRPGHIPRP

>  <testedTarget>
Escherichia coli TOP10

>  <classLabel>
bin 2

$$$$
>  <entrySequence>
RRIRFRPPRLPRPRPRPHVEPRP

>  <testedTarget>
Escherichia coli TOP10

>  <classLabel>
bin 2

$$$$
>  <entrySequence>
RRIRIRPPRLPRPRPRPLKHPRP

>  <testedTarget>
Escherichia coli TOP10

>  <classLabel>
bin 1

$$$$
>  <entrySequence>
RRIRARPPRLPRPRPRPNSMPRP

>  <testedTarget>
Escherichia coli TOP10

>  <classLabel>
bin 1

$$$$
>  <entrySequence>
RRIRDRPPRLPRPRPRPDTLPRP

>  <testedTarget>
Escherichia coli TOP10

>  <classLabel>
bin 3

$$$$
>  <entrySequence>
RRIRWRPPRLPRPRPRPFYGPRP

>  <testedTarget>
Escherichia coli TOP10

>  <classLabel>
bin 2

$$$$
>  <entrySequence>
RRIRKRPPRLPRPRPRPHNPPRP

>  <testedTarget>
Escherichia coli TOP10

>  <classLabel>
bin 2

$$$$
>  <entrySequence>
RRIRSRPPRLPRPRPRPKVSPRP

>  <testedTarget>
Escherichia coli TOP10

>  <classLabel>
bin 3

$$$$
>  <entrySequence>
RRIRTRPPRLPRPRPRPFHMPRP

>  <testedTarget>
Escherichia coli TOP10

>  <classLabel>
bin 1

$$$$
>  <entrySequence>
RRIRFRPPRLPRPRPRPPFQPRP

>  <testedTarget>
Escherichia coli TOP10

>  <classLabel>
bin 3

$$$$
>  <entrySequence>
RRIRVRPPRLPRPRPRPMSFPRP

>  <testedTarget>
Escherichia coli TOP10

>  <classLabel>
bin 1

$$$$
>  <entrySequence>
RRIRLRPPRLPRPRPRPEQYPRP

>  <testedTarget>
Escherichia coli TOP10

>  <classLabel>
bin 1

$$$$
>  <entrySequence>
RRIRKRPPRLPRPRPRPCVEPRP

>  <testedTarget>
Escherichia coli TOP10

>  <classLabel>
bin 3

$$$$
>  <entrySequence>
RRIRNRPPRLPRPRPRPMSWPRP

>  <testedTarget>
Escherichia coli TOP10

>  <classLabel>
bin 1

$$$$
>  <entrySequence>
RRIRHRPPRLPRPRPRPQGHPRP

>  <testedTarget>
Escherichia coli TOP10

>  <classLabel>
bin 1

$$$$
>  <entrySequence>
RRIRDRPPRLPRPRPRPASGPRP

>  <testedTarget>
Escherichia coli TOP10

>  <classLabel>
bin 3

$$$$
>  <entrySequence>
RRIRRRPPRLPRPRPRPGQRPRP

>  <testedTarget>
Escherichia coli TOP10

>  <classLabel>
bin 3

$$$$
>  <entrySequence>
RRIRMRPPRLPRPRPRPCMWPRP

>  <testedTarget>
Escherichia coli TOP10

>  <classLabel>
bin 3

$$$$
>  <entrySequence>
RRIRTRPPRLPRPRPRPSNSPRP

>  <testedTarget>
Escherichia coli TOP10

>  <classLabel>
bin 1

$$$$
>  <entrySequence>
RRIRKRPPRLPRPRPRPNRVPRP

>  <testedTarget>
Escherichia coli TOP10

>  <classLabel>
bin 2

$$$$
>  <entrySequence>
RRIRSRPPRLPRPRPRPTLIPRP

>  <testedTarget>
Escherichia coli TOP10

>  <classLabel>
bin 2

$$$$
>  <entrySequence>
RRIRPRPPRLPRPRPRPGQVPRP

>  <testedTarget>
Escherichia coli TOP10

>  <classLabel>
bin 3

$$$$
>  <entrySequence>
RRIRHRPPRLPRPRPRPDRMPRP

>  <testedTarget>
Escherichia coli TOP10

>  <classLabel>
bin 2

$$$$
>  <entrySequence>
RRIRTRPPRLPRPRPRPTHMPRP

>  <testedTarget>
Escherichia coli TOP10

>  <classLabel>
bin 2

$$$$
>  <entrySequence>
RRIRERPPRLPRPRPRPEDAPRP

>  <testedTarget>
Escherichia coli TOP10

>  <classLabel>
bin 2

$$$$
>  <entrySequence>
RRIRPRPPRLPRPRPRPWGFPRP

>  <testedTarget>
Escherichia coli TOP10

>  <classLabel>
bin 1

$$$$
>  <entrySequence>
RRIRARPPRLPRPRPRPEDDPRP

>  <testedTarget>
Escherichia coli TOP10

>  <classLabel>
bin 3

$$$$
>  <entrySequence>
RRIRTRPPRLPRPRPRPHRLPRP

>  <testedTarget>
Escherichia coli TOP10

>  <classLabel>
bin 1

$$$$

###

We begin with a simple list: items and their reported shrunken log2 fold change.
# Tested on: Escherichia coli TOP10
# procedureDetails: shrunken log2 fold change of peptide-encoding DNA abundance (4.5 h post-induction vs induction); higher = less antimicrobial activity (less host growth inhibition)
# reportedConditions: time post-induction: 4.5 h; library: site-saturation at positions 5, 18, 19, 20

>  <entrySequence>
RRIRSRPPRLPRPRPRPADRPRP

>  <shrunken log2 fold change>
0.308

$$$$
>  <entrySequence>
RRIRPRPPRLPRPRPRPTIGPRP

>  <shrunken log2 fold change>
-0.128

$$$$
>  <entrySequence>
RRIRDRPPRLPRPRPRPPGQPRP

>  <shrunken log2 fold change>
0.0311

$$$$
>  <entrySequence>
RRIRHRPPRLPRPRPRPPMLPRP

>  <shrunken log2 fold change>
0.0935

$$$$
>  <entrySequence>
RRIRWRPPRLPRPRPRPGWAPRP

>  <shrunken log2 fold change>
0.845

$$$$
>  <entrySequence>
RRIRERPPRLPRPRPRPDCVPRP

>  <shrunken log2 fold change>
-0.191

$$$$
>  <entrySequence>
RRIRGRPPRLPRPRPRPLEVPRP

>  <shrunken log2 fold change>
0.252

$$$$
>  <entrySequence>
RRIRWRPPRLPRPRPRPCPRPRP

>  <shrunken log2 fold change>
-0.0457

$$$$

###

We begin with a simple list: items and their reported shrunken log2 fold change.
# Tested on: Escherichia coli TOP10
# procedureDetails: shrunken log2 fold change of peptide-encoding DNA abundance (4.5 h post-induction vs induction); higher = less antimicrobial activity (less host growth inhibition)
# reportedConditions: time post-induction: 4.5 h; library: site-saturation at positions 5, 18, 19, 20

>  <entrySequence>
RRIRGRPPRLPRPRPRPTQCPRP

>  <shrunken log2 fold change>
0.222

$$$$
>  <entrySequence>
RRIRLRPPRLPRPRPRPRYSPRP

>  <shrunken log2 fold change>
-0.087

$$$$
>  <entrySequence>
RRIRTRPPRLPRPRPRPMCPPRP

>  <shrunken log2 fold change>
-0.017

$$$$
>  <entrySequence>
RRIRYRPPRLPRPRPRPQGMPRP

>  <shrunken log2 fold change>
-0.0114

$$$$
>  <entrySequence>
RRIRSRPPRLPRPRPRPTAQPRP

>  <shrunken log2 fold change>
0.405

$$$$
>  <entrySequence>
RRIRERPPRLPRPRPRPPGWPRP

>  <shrunken log2 fold change>
0.467

$$$$
>  <entrySequence>
RRIRYRPPRLPRPRPRPQFNPRP

>  <shrunken log2 fold change>
-0.755

$$$$
>  <entrySequence>
RRIRYRPPRLPRPRPRPICCPRP

>  <shrunken log2 fold change>
-0.137

$$$$
>  <entrySequence>
RRIRLRPPRLPRPRPRPPDDPRP

>  <shrunken log2 fold change>
0.397

$$$$
>  <entrySequence>
RRIRLRPPRLPRPRPRPWSCPRP

>  <shrunken log2 fold change>
-0.136

$$$$
>  <entrySequence>
RRIRCRPPRLPRPRPRPQYLPRP

>  <shrunken log2 fold change>
-0.964

$$$$
>  <entrySequence>
RRIRFRPPRLPRPRPRPHRCPRP

>  <shrunken log2 fold change>
-0.0295

$$$$
>  <entrySequence>
RRIRHRPPRLPRPRPRPQNLPRP

>  <shrunken log2 fold change>
-0.00783

$$$$
>  <entrySequence>
RRIRPRPPRLPRPRPRPELVPRP

>  <shrunken log2 fold change>
0.442

$$$$
>  <entrySequence>
RRIRFRPPRLPRPRPRPMFWPRP

>  <shrunken log2 fold change>
-0.0645

$$$$

###

# Tested on: Escherichia coli TOP10;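 further: peptides expressed intracellularly from a pBAD plasmid library in pooled LB shake-flask culture, induced with 0.3% L-arabinose, DNA abundance read by NGS, three biological replicates, DESeq2 with apeglm shrinkage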
# procedureDetails: shrunken log2 fold change of peptide-encoding DNA abundance (4.5 h post-induction vs induction); higher = less antimicrobial activity (less host growth inhibition)
# reportedConditions: time post-induction: 4.5 h; library: site-saturation at positions 5, 18, 19, 20
Definition: the class of an entry is the range in bottom = under -0.08, middle = from -0.08 up to 0.004, top = 0.004 and over that contains its shrunken log2 fold change.

>  <entrySequence>
RRIRYRPPRLPRPRPRPLKVPRP

>  <classLabel>
middle

$$$$
>  <entrySequence>
RRIRQRPPRLPRPRPRPRIEPRP

>  <classLabel>
top

$$$$
>  <entrySequence>
RRIRRRPPRLPRPRPRPCIIPRP

>  <classLabel>
bottom

$$$$
>  <entrySequence>
RRIRRRPPRLPRPRPRPWSLPRP

>  <classLabel>
top

$$$$
>  <entrySequence>
RRIRDRPPRLPRPRPRPIQSPRP

>  <classLabel>
bottom

$$$$
>  <entrySequence>
RRIRERPPRLPRPRPRPSPFPRP

>  <classLabel>
bottom

$$$$
>  <entrySequence>
RRIRQRPPRLPRPRPRPNPSPRP

>  <classLabel>
middle

$$$$
>  <entrySequence>
RRIRPRPPRLPRPRPRPQSSPRP

>  <classLabel>
middle

$$$$
>  <entrySequence>
RRIRGRPPRLPRPRPRPPGKPRP

>  <classLabel>
top

$$$$
>  <entrySequence>
RRIRARPPRLPRPRPRPFLLPRP

>  <classLabel>
bottom

$$$$
>  <entrySequence>
RRIRDRPPRLPRPRPRPIRPPRP

>  <classLabel>
middle

$$$$
>  <entrySequence>
RRIRTRPPRLPRPRPRPTRQPRP

>  <classLabel>
top

$$$$
